Target of assay: cloned human 5-HT1A receptors (Homo sapiens, UniProt P08908)
Construct: expressed in transfected cells; host or cells: HeLa cells (HA7)
Sequence (P08908 whole entry): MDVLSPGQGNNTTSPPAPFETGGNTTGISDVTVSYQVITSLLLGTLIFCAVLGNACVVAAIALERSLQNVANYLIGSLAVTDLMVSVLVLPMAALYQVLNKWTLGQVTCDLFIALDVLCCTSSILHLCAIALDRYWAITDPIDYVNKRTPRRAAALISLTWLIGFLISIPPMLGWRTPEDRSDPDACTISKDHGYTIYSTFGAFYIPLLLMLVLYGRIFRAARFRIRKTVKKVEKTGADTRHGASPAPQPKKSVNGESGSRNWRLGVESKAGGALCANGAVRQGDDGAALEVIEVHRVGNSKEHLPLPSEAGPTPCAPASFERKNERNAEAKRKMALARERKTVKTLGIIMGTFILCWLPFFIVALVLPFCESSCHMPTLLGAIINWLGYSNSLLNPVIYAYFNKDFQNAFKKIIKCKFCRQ
Assay notes: Inhibition of 3H-5-CT binding to human 5-HT1A receptors
Observable: IC50 (nM)
Numbers only, in nM.

c1cc(N2CCN(CCc3n[nH]c4ccccc34)CC2)c2cc[nH]c2c1 [Compound 1j] | 22

Quickly give me recorded IC50 for Clc1ccc2c(CCN3CCN(c4cccc5[nH]ccc45)CC3)n[nH]c2c1 [Compound 1k] 22

====

For each of the compounds below, state its log10 of IC50.
Target of assay: Serotonin reuptake (whole rat brain synaptosomes) (Rattus norvegicus)
Construct: from tissue; host or cells: whole rat brain synaptosomes
Sequence (P31652 whole entry): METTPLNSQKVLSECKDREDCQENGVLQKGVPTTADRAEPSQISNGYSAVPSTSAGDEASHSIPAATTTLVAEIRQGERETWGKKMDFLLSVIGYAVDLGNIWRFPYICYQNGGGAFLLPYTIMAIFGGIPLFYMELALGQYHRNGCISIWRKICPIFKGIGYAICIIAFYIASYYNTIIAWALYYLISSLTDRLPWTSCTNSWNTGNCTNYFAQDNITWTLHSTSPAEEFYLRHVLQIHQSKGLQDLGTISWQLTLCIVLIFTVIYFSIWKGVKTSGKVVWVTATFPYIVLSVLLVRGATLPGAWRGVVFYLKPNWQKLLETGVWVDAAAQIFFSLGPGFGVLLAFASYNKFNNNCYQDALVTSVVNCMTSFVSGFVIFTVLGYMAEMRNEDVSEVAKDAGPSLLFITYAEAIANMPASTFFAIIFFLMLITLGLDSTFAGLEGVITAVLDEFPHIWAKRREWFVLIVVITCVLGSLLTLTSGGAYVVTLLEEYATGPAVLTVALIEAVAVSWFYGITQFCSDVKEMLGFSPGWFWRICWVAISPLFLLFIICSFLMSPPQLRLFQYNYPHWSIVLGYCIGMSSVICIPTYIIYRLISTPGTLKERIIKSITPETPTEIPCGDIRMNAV
Assay notes: Inhibition of 3H-5-HT uptake into rat brain synaptosomes
Format: biochemical
Short version: log10 scale, IC50, µM.

These solved cases illustrate the format of a correct answer.
Clc1ccc2c(CCN3CCN(c4cccc5[nH]ccc45)CC3)c[nH]c2c1 | -1.68
Clc1cccc2c(CCN3CCN(c4cccc5[nH]ccc45)CC3)coc12 | -2.36
Brc1ccc2[nH]cc(CCN3CCN(c4ccc5[nH]ccc5c4)CC3)c2c1 | -1.41

For every item in the list below, what is its measured log10 of IC50?
1. OCc1cc(N2CCN(CCc3c[nH]c4ccc(F)cc34)CC2)c2cc[nH]c2c1
2. Cc1ccc2occ(CCN3CCN(c4cccc5[nH]ccc45)CC3)c2c1
3. Cc1ccc2c(CCN3CCN(c4cccc5[nH]ccc45)CC3)coc2c1
4. Clc1ccc2c(CCN3CCC(c4cccc5[nH]ccc45)CC3)c[nH]c2c1
5. Brc1cccc2c(CCN3CCN(c4cccc5[nH]ccc45)CC3)c[nH]c12

1. -1.77
2. -1.47
3. -1.03
4. -1.72
5. -2.23

For every item in the list below, what is its measured log10 of IC50?
1. N#Cc1c[nH]c2cccc(N3CCN(CCc4c[nH]c5ccccc45)CC3)c12
2. Fc1ccc2[nH]cc(CCN3CCN(c4cccc5[nH]ccc45)CC3)c2c1
3. Fc1ccc2occ(CCN3CCN(c4cccc5[nH]ccc45)CC3)c2c1
4. Clc1ccc2occ(CCN3CCN(c4cccc5[nH]ccc45)CC3)c2c1
5. Fc1ccc2[nH]cc(CCN3CC=C(c4cccc5[nH]ccc45)CC3)c2c1

1. -2.52
2. -2.64
3. -1.24
4. -1.00
5. -2.60

====

Target of assay: cloned human 5-HT1A receptors (Homo sapiens, UniProt P08908)
Construct: expressed in transfected cells; host or cells: HeLa cells (HA7)
Assay notes: Inhibition of 3H-5-CT binding to human 5-HT1A receptors
Condition notes: cloned human 5-HT1A receptors in transfected HeLa cells (HA7), 15 minutes at 37° C., pH 7.7
pIC50: −log10 of the molar value.
Label T for high-side pIC50 (at or above 7) and F for low-side pIC50 (below it).

Would you please look over these solved cases?
OCc1cc(N2CCN(CCc3c[nH]c4ccc(Br)cc34)CC2)c2cc[nH]c2c1 [Compound 3c] | F
Fc1ccc2occ(CCN3CCN(c4cccc5[nH]ccc45)CC3)c2c1 [Compound 1c] | T
Clc1cccc2c(CCN3CCN(c4cccc5[nH]ccc45)CC3)coc12 [Compound 4v] | T

Check this compound for pIC50 at or above 7: Brc1ccc2[nH]cc(CCN3CCN(c4ccc5[nH]ccc5c4)CC3)c2c1 [Compound 2t] F

Check this compound for pIC50 at or above 7: Clc1ccc2[nH]cc(CCN3CCN(c4ccc5[nH]ccc5c4)CC3)c2c1 [Compound 2u] F

====

For each of the compounds below, state its melting point.
Where a name gives a salt, the structure may show the parent alone.

These solved cases illustrate the format of a correct answer.
Fc1ccc2occ(CCCN3CCN(c4cccc5[nH]ccc45)CC3)c2c1 (as salt: hydrochloride) | 230 to 234 °C
COC(=O)c1cc(N2CCN(CCc3c[nH]c4cc(Cl)ccc34)CC2)c2cc[nH]c2c1 (as salt: oxalate) | 228 to 230 °C
C#CCn1ccc2c(N3CCN(CCc4c[nH]c5ccc(Br)cc45)CC3)cccc21 | 154 to 156 °C
Cc1cccc2occ(CCN3CCN(c4cccc5[nH]ccc45)CC3)c12 (as salt: oxalate) | 204 to 206 °C
Clc1ccc2occ(CCN3CCN(c4cccc5[nH]ccc45)CC3)c2c1 (as salt: oxalate) | 200 to 202 °C
c1cc(N2CCN(Cc3coc4ccccc34)CC2)c2cc[nH]c2c1 (as salt: oxalate) | 226 to 228 °C
Clc1cccc2c(CCN3CCN(c4cccc5[nH]ccc45)CC3)coc12 (as salt: oxalate) | 216 to 218 °C
N#Cc1cccc2c(CCN3CCN(c4cccc5[nH]ccc45)CC3)c[nH]c12 (as salt: oxalate) | 241 to 243 °C

For every item in the list below, what is its measured melting point?
1. OCc1cc(N2CCN(CCc3c[nH]c4ccc(Br)cc34)CC2)c2cc[nH]c2c1
2. C#CCn1ccc2c(N3CCN(CCc4c[nH]c5ccccc45)CC3)cccc21 (as salt: fumarate)
3. N#Cc1c[nH]c2cccc(N3CCN(CCc4coc5ccccc45)CC3)c12 (as salt: oxalate)
4. C=CCn1ccc2c(N3CCN(CCc4c[nH]c5ccc(F)cc45)CC3)cccc21 (as salt: fumarate)

1: 163 to 165 °C; 2: 193 to 195 °C; 3: 221 to 223 °C; 4: 210 to 212 °C

For every item in the list below, what is its measured melting point?
1. Fc1ccc2occ(CCCCN3CCN(c4cccc5[nH]ccc45)CC3)c2c1 (as salt: hydrochloride)
2. C#CCn1ccc2c(N3CCN(CCc4c[nH]c5ccc(F)cc45)CC3)cccc21

1: 241 to 244 °C; 2: 153 to 155 °C

====

Target of assay: Serotonin reuptake (whole rat brain synaptosomes) (Rattus norvegicus)
Construct: from tissue; host or cells: whole rat brain synaptosomes
Assay notes: Inhibition of 3H-5-HT uptake into rat brain synaptosomes
Format: biochemical
Protocol: Inhibition of ^3H-5-HT Uptake Into Rat Brain Synaptosomes Using this method the ability of drugs to inhibit the accumulation of ^3H-5-HT into whole rat brain synaptosomes is determined in vitro.
For each of the compounds below, state its IC50.
One number for each entry, in nM.

COC(=O)c1cc(N2CCN(CCc3c[nH]c4ccccc34)CC2)c2cc[nH]c2c1 [Compound 4f] | 14
c1cc(N2CCN(CCc3coc4ccccc34)CC2)c2cc[nH]c2c1 [Compound 1a] | 31
Cc1cccc2occ(CCN3CCN(c4cccc5[nH]ccc45)CC3)c12 [Compound 4r] | 12

Fill in IC50 for Clc1ccc2[nH]cc(CCN3CCN(c4ccc5[nH]ccc5c4)CC3)c2c1 [Compound 2u] tested with Serotonin reuptake (whole rat brain synaptosomes) (Rattus norvegicus). 20
